# System: T. cruzi (MHOM/BR/00/Y)
# Assay protocol: Trypanosoma cruzi in mouse peritoneal macrophages
# Format: cell-based
# Condition context: 1 μM
Property measured: % Inhibition, Trypanosoma cruzi (%)
# number only, unit % dropped from output

Solved cases below.
Cc1ccncc1.F[B-](F)(F)F.F[B-](F)(F)F.OCCNc1cc(-c2ccccn2)nc(-c2ccccn2)c1.[Pt+2]	0
Cc1cc[n+]([Pt-2]23[n+]4ccccc4-c4cc(Cl)cc([n+]42)-c2cccc[n+]23)cc1.F[B-](F)(F)F.F[B-](F)(F)F	59.7
CN(N)c1cc(-c2ccccn2)nc(-c2ccccn2)c1.Cc1ccncc1.F[B-](F)(F)F.F[B-](F)(F)F.[Pt+2]	60.9

Give the measured % Inhibition, Trypanosoma cruzi for Cc1ccncc1.F[B-](F)(F)F.F[B-](F)(F)F.[Pt+2].c1ccc(-c2cc(N3CC3)cc(-c3ccccn3)n2)nc1
0

Determine from records and report % Inhibition, Trypanosoma cruzi for CC(=O)c1cc[n+]([Pt-2]23[n+]4ccccc4-c4cccc([n+]42)-c2cccc[n+]23)cc1.F[B-](F)(F)F.F[B-](F)(F)F
3.8

Specify % Inhibition, Trypanosoma cruzi for F[B-](F)(F)F.F[B-](F)(F)F.c1cc[n+]2c(c1)-c1cccc3[n+]1[Pt-2]2([n+]1ccsc1)[n+]1ccccc1-3 and stop.
0

# return recorded % Inhibition, Trypanosoma cruzi for entry F[B-](F)(F)F.F[B-](F)(F)F.[NH3+][Pt-2]12[n+]3ccccc3-c3cccc([n+]31)-c1cccc[n+]12
72.3

====

# System: T. cruzi (MHOM/BR/00/Y)
# Assay protocol: Trypanosoma cruzi in mouse peritoneal macrophages
# Format: cell-based
# Condition context: 1 μM
Below, each entry is listed with its recorded % Inhibition, Trypanosoma cruzi.

These recorded examples may help you get a feel for the data.
CC#[N+][Pt-2]12[n+]3ccccc3-c3cccc([n+]31)-c1cccc[n+]12.F[B-](F)(F)F.F[B-](F)(F)F [Compound A8]	0%
Cc1ccncc1.F[B-](F)(F)F.F[B-](F)(F)F.NNc1cc(-c2ccccn2)nc(-c2ccccn2)c1.[Pt+2] [R]	60.8%
F[B-](F)(F)F.F[B-](F)(F)F.Fc1ccc[n+]([Pt-2]23[n+]4ccccc4-c4cccc([n+]42)-c2cccc[n+]23)c1 [Compound A5]	2.0%
Cc1ccncc1.Cc1ccncc1.F[B-](F)(F)F.F[B-](F)(F)F.F[B-](F)(F)F.F[B-](F)(F)F.O=C(CCCCC(=O)NNc1cc(-c2ccccn2)nc(-c2ccccn2)c1)NNc1cc(-c2ccccn2)nc(-c2ccccn2)c1.[Pt+2].[Pt+2] [V]	0%

Annotate the compound [Cl-].[Cl-].[Pt+2].c1ccc(-c2cccc(-c3ccccn3)n2)nc1 [Compound A13] with its measured % Inhibition, Trypanosoma cruzi.
52.0%

====

# Tested on: CH1 human ovarian carcinoma cell line
# Assay protocol: 96 h growth inhibition, sulforhodamine B assay, CH1
# Format: cell-based
# Condition context: 96 h exposure, v = variable (mean)
Property measured: pIC50
Notebook: values listed as pIC50 are -log10 of the concentration (mol/L).

N.N.[Cl][Pt][Cl] [cisplatin, cis[Pt(NH3)2Cl2], reference compound]	6.40
Cc1ccncc1.F[B-](F)(F)F.F[B-](F)(F)F.[Pt+2].c1ccc(-c2cc(N3CC3)cc(-c3ccccn3)n2)nc1	5.34
Cc1ccncc1.F[B-](F)(F)F.F[B-](F)(F)F.[Pt+2].c1ccc(-c2cccc(-c3ccccn3)n2)nc1	4.85
Cc1ccncc1.Cc1ccncc1.F[B-](F)(F)F.F[B-](F)(F)F.F[B-](F)(F)F.F[B-](F)(F)F.O=C(CCCCC(=O)NNc1cc(-c2ccccn2)nc(-c2ccccn2)c1)NNc1cc(-c2ccccn2)nc(-c2ccccn2)c1.[Pt+2].[Pt+2]	4.32
[Cl-].[Cl-].[Pt+2].c1ccc(-c2cccc(-c3ccccn3)n2)nc1	5.18
F[B-](F)(F)F.F[B-](F)(F)F.Fc1ccc[n+]([Pt-2]23[n+]4ccccc4-c4cccc([n+]42)-c2cccc[n+]23)c1	4.77

Field: next compound
Please report pIC50 for the following compound: Cc1ccncc1.F[B-](F)(F)F.F[B-](F)(F)F.NNc1cc(-c2ccccn2)nc(-c2ccccn2)c1.[Pt+2]
4.80

Source of measurements: patent US20020013306A1
